Assay Notes: neurologic toxicity (Tox), rotorod test, mice ip
Experimental Parameters: mouse, in vivo, ip, Tox, TD50, Mice (ip); time in hours in second brackets; [x; y] = between doses x and y
Quantity Name: TD50

{"Molecule": "COC[C@@H](NC(C)=O)C(=O)NCc1ccc(C(F)(F)F)cc1 [(R)-10]", "Reported Value": "100 to 300 mg/kg"}
{"Molecule": "C#CCOC[C@@H](NC(C)=O)C(=O)NCc1ccccc1 [(R)-7]", "Reported Value": "30 to 100 mg/kg"}
{"Molecule": "C#CCOC[C@@H](NC(C)=O)C(=O)NCc1ccc(N=[N+]=[N-])cc1 [(R)-8]", "Reported Value": "100 to 300 mg/kg"}
{"Molecule": "C#CCOC[C@@H](NC(C)=O)C(=O)NCc1ccc(N=C=S)cc1 [(R)-9]", "Reported Value": "68 mg/kg"}

We now examine a further molecule.
Recorded TD50 of COC[C@@H](NC(C)=O)C(=O)NCc1ccc(COc2cccc(F)c2)cc1 [(R)-11] , please. 10 to 30 mg/kg

###

Assay Notes: neurologic toxicity (Tox), rat po
Assay type: in vivo
Experimental Parameters: in vivo, time in hours in brackets
Quantity Name: TD50

{"Compound": "C#CCOC[C@@H](NC(C)=O)C(=O)NCc1ccccc1 [(R)-7]", "Quantity Name": "TD50", "Reported Value": "> 500 mg/kg"}

Give one value of TD50 per listed compound.
1. COC[C@@H](NC(C)=O)C(=O)NCc1ccc(C(F)(F)F)cc1 [(R)-10]
2. C#CCOC[C@@H](NC(C)=O)C(=O)NCc1ccc(N=C=S)cc1 [(R)-9]
3. C#CCOC[C@@H](NC(C)=O)C(=O)NCc1ccc(N=[N+]=[N-])cc1 [(R)-8]

> 30 mg/kg
> 30 mg/kg
> 500 mg/kg
